Measured inhibition values are reported for all entries that follow.
# TEST_TARGET: Mitogen-activated protein kinase 8 (Homo sapiens)
# METHOD_DESCRIPTION: In vitro percent inhibition of c-Jun N-terminal kinase 1-alpha 1 at 10 uM concentration of compound dissolved in 100% DMSO using 5''-[gamma-33P]-triphosphate

SUBSTANCE_SMILES: c1csc(-c2nc3cc4c(cc3nc2-c2cccs2)OCCO4)c1
inhibition: 24%
--
SUBSTANCE_SMILES: Oc1cc2nc(-c3cccs3)c(-c3cccs3)nc2cc1O
inhibition: -3%
--
SUBSTANCE_SMILES: c1csc(-c2nc3cc4ccccc4cc3nc2-c2cccs2)c1
inhibition: 6%
--
SUBSTANCE_SMILES: O=C(O)c1ccc2cc3nc(-c4cccs4)c(-c4cccs4)nc3cc2c1
inhibition: 20%
--
SUBSTANCE_SMILES: c1csc(-c2nc3cc4c(cc3nc2-c2cccs2)OCCCO4)c1
inhibition: 15%

The compound listed as COC(=O)CCc1ccc(-c2nc3cc4ccccc4cc3nc2-c2ccc(CCC(=O)OC)s2)s1 has a reported inhibition of -10%

---

# TEST_TARGET: Mast/stem cell growth factor receptor Kit (Homo sapiens) (UniProt P10721)
# Sequence (P10721 whole entry): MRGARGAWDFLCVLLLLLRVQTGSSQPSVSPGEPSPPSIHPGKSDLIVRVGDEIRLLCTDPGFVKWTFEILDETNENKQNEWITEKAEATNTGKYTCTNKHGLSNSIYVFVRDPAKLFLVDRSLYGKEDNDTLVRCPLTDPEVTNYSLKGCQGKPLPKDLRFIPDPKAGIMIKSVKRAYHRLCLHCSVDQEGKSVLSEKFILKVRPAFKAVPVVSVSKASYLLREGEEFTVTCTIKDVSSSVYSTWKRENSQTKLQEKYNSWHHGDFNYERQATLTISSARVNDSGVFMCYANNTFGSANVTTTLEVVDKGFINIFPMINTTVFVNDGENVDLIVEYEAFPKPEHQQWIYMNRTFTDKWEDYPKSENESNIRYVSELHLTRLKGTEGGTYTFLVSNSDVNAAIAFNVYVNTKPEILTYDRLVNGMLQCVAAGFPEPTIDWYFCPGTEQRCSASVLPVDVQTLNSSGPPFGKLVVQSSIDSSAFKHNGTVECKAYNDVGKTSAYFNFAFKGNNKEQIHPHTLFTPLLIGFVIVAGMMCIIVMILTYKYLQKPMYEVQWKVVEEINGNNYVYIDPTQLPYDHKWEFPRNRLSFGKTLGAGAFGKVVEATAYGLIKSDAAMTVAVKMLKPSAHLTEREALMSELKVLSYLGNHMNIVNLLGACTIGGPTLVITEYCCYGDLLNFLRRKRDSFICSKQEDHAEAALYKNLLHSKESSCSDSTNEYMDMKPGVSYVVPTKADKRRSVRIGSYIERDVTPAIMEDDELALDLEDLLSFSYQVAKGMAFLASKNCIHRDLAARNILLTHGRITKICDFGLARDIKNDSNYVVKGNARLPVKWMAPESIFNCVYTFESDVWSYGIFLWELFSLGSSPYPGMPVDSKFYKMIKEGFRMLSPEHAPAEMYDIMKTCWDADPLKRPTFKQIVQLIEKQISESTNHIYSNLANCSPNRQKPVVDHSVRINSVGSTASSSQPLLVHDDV
# METHOD_DESCRIPTION: In vitro percent inhibition of v-kit Hardy-Zuckerman 4 feline sarcoma viral oncogene homolog at 10 uM concentration of compound dissolved in 100% DMSO using 5''-[gamma-33P]-triphosphate
Quick rule for you: inhibition at 20% or higher means Criterion met, lower means Criterion not met.

COMPOUND: O=C(O)C1COc2cc3nc(-c4cccs4)c(-c4cccs4)nc3cc2O1 (configuration not stated)
CLASS: Criterion not met
--
COMPOUND: COC(=O)CCc1ccc(-c2nc3cc4ccccc4cc3nc2-c2ccc(CCC(=O)OC)s2)s1
CLASS: Criterion not met
--
COMPOUND: c1csc(-c2nc3cc4c(cc3nc2-c2cccs2)OCO4)c1
CLASS: Criterion met
--
COMPOUND: c1csc(-c2nc3cc4ccccc4cc3nc2-c2cccs2)c1
CLASS: Criterion not met
--
COMPOUND: O=C(O)CCc1ccc(-c2nc3cc4ccccc4cc3nc2-c2ccc(CCC(=O)O)s2)s1
CLASS: Criterion met
--
COMPOUND: c1csc(-c2nc3cc4c(cc3nc2-c2cccs2)OCCCO4)c1
CLASS: Criterion met
--
COMPOUND: COC(=O)Cc1csc(-c2nc3cc4ccccc4cc3nc2-c2cc(CC(=O)OC)cs2)c1
CLASS: Criterion not met
--
COMPOUND: COc1cc2nc(-c3cccs3)c(-c3cccs3)nc2cc1OC
CLASS: Criterion not met

### Prompt Evaluate O=C(O)c1ccc2cc3nc(-c4cccs4)c(-c4cccs4)nc3cc2c1 : inhibition at minimum 20%?
### Response Criterion met

### Prompt Evaluate c1csc(-c2nc3cc4c(cc3nc2-c2cccs2)OCCO4)c1 : inhibition at minimum 20%?
### Response Criterion met

### Prompt Evaluate COc1cc2nc3nc(-c4cccs4)c(-c4cccs4)nc3nc2cc1OC : inhibition at minimum 20%?
### Response Criterion not met

### Prompt Evaluate O=C(O)CCCc1ccc(-c2nc3cc4ccccc4cc3nc2-c2ccc(CCCC(=O)O)s2)s1 : inhibition at minimum 20%?
### Response Criterion met

### Prompt Evaluate Oc1cc2nc(-c3cccs3)c(-c3cccs3)nc2cc1O : inhibition at minimum 20%?
### Response Criterion not met

### Prompt Evaluate O=C(O)Cc1ccc(-c2nc3cc4ccccc4cc3nc2-c2ccc(CC(=O)O)s2)s1 : inhibition at minimum 20%?
### Response Criterion not met

### Prompt Evaluate O=C(O)Cc1csc(-c2nc3cc4ccccc4cc3nc2-c2cc(CC(=O)O)cs2)c1 : inhibition at minimum 20%?
### Response Criterion not met

### Prompt Evaluate COC(=O)CCCc1ccc(-c2nc3cc4ccccc4cc3nc2-c2ccc(CCCC(=O)OC)s2)s1 : inhibition at minimum 20%?
### Response Criterion not met

### Prompt Evaluate O=C(O)c1ccc(-c2nc3cc4ccccc4cc3nc2-c2ccc(C(=O)O)s2)s1 : inhibition at minimum 20%?
### Response Criterion not met

---

# TEST_TARGET: Proto-oncogene tyrosine-protein kinase Src (Homo sapiens) (UniProt P12931)
# Sequence (P12931 2-536 limits assumed): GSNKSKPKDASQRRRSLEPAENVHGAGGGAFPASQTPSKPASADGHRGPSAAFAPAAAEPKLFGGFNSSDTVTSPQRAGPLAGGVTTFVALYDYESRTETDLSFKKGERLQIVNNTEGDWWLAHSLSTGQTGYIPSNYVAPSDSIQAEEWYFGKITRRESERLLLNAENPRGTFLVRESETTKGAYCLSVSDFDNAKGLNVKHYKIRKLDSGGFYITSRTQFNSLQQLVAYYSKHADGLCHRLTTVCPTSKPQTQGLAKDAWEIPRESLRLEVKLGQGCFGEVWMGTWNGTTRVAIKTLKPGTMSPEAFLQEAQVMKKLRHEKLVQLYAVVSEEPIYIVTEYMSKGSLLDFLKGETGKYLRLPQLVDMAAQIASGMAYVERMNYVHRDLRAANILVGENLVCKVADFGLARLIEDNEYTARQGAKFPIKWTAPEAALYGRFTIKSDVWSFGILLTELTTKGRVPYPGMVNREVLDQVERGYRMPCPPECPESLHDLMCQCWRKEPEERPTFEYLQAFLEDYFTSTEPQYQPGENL
# METHOD_DESCRIPTION: In vitro percent inhibition of c-Src tyrosine kinase at 10 uM concentration of compound dissolved in 100% DMSO using 5''-[gamma-33P]-triphosphate
Quick rule for you: inhibition at 20% or higher means true, lower means false.

The following compounds have reported results that may help.
SUBSTANCE_SMILES: O=C(O)CCc1ccc(-c2nc3cc4ccccc4cc3nc2-c2ccc(CCC(=O)O)s2)s1
TEST_TARGET: Proto-oncogene tyrosine-protein kinase Src (Homo sapiens) (UniProt P12931)
CLASS: true

SUBSTANCE_SMILES: COC(=O)CCc1ccc(-c2nc3cc4ccccc4cc3nc2-c2ccc(CCC(=O)OC)s2)s1
TEST_TARGET: Proto-oncogene tyrosine-protein kinase Src (Homo sapiens) (UniProt P12931)
CLASS: false

SUBSTANCE_SMILES: COc1cc2nc(-c3cccs3)c(-c3cccs3)nc2cc1OC
TEST_TARGET: Proto-oncogene tyrosine-protein kinase Src (Homo sapiens) (UniProt P12931)
CLASS: false

SUBSTANCE_SMILES: O=C(O)Cc1ccc(-c2nc3cc4ccccc4cc3nc2-c2ccc(CC(=O)O)s2)s1
TEST_TARGET: Proto-oncogene tyrosine-protein kinase Src (Homo sapiens) (UniProt P12931)
CLASS: false

Now turn to the next compound.
### Prompt Evaluate O=C(O)CCCc1ccc(-c2nc3cc4ccccc4cc3nc2-c2ccc(CCCC(=O)O)s2)s1 : inhibition at minimum 20%?
### Response true

---

Measured inhibition values are reported for all entries that follow.
# TEST_TARGET: Ribosomal protein S6 kinase (P70S6K) (Homo sapiens) (UniProt Q9UBS0+P23443)
# METHOD_DESCRIPTION: In vitro percent inhibition of Ribosomal protein S6 kinase at 10 uM concentration of compound dissolved in 100% DMSO using 5''-[gamma-33P]-triphosphate
# Assay type: protein-complex assay
Give the value in % but do not write % after it.

Look over these answered cases.
COMPOUND: O=C(O)C1COc2cc3nc(-c4cccs4)c(-c4cccs4)nc3cc2O1 (stereo unspecified)
RESULT_UNITS: %
inhibition: -1
--
COMPOUND: COc1cc2nc3nc(-c4cccs4)c(-c4cccs4)nc3nc2cc1OC
RESULT_UNITS: %
inhibition: -2

Entry Oc1cc2nc(-c3cccs3)c(-c3cccs3)nc2cc1O , tested on Ribosomal protein S6 kinase (P70S6K) (Homo sapiens) (UniProt Q9UBS0+P23443), has a reported inhibition of -8

---

# METHOD_DESCRIPTION: Partition coefficient (logP)
# Format: physicochemical
# MEASUREMENT_CONTEXT: octanol/water
Threshold 4. logP below it: 1. logP at it or above: 0.

The following compounds have reported results that may help.
COMPOUND: CCC(=O)c1ccccc1 [PROPIOPHENONE]
CLASS: 1
//
COMPOUND: COC(=O)Cc1csc(-c2nc3cc4ccccc4cc3nc2-c2cc(CC(=O)OC)cs2)c1
CLASS: 0
//
COMPOUND: Cn1c(=O)c2[nH]cnc2n(C)c1=O [THEOPHYLLINE]
CLASS: 1

Now turn to the next compound.
### Prompt Find out if reported logP for COc1cc2c(c(OC)c1OC)-c1ccc(OC)c(=O)cc1[C@@H](NC(C)=O)CC2 [COLCHICINE] is less than 4
### Response 1

---

# TEST_TARGET: RAF proto-oncogene serine/threonine-protein kinase (Homo sapiens)
# METHOD_DESCRIPTION: In vitro percent inhibition of RAF proto-oncogene serine/threonine-protein kinase at 10 uM concentration of compound dissolved in 100% DMSO using 5''-[gamma-33P]-triphosphate
OBSERVABLE: inhibition (%)
Give the value in % but do not write % after it.

SUBSTANCE_SMILES: c1csc(-c2nc3cc4ccccc4cc3nc2-c2cccs2)c1
TEST_TARGET: RAF proto-oncogene serine/threonine-protein kinase (Homo sapiens)
inhibition (%): 16

The molecule listed as COc1cc2nc(-c3cccs3)c(-c3cccs3)nc2cc1OC has a reported inhibition of 11

The molecule listed as c1csc(-c2nc3cc4c(cc3nc2-c2cccs2)OCCO4)c1 has a reported inhibition of 4

The molecule listed as Oc1cc2nc(-c3cccs3)c(-c3cccs3)nc2cc1O has a reported inhibition of 3

The molecule listed as O=C(O)Cc1ccc(-c2nc3cc4ccccc4cc3nc2-c2ccc(CC(=O)O)s2)s1 has a reported inhibition of 39

The molecule listed as c1csc(-c2nc3cc4c(cc3nc2-c2cccs2)OCO4)c1 has a reported inhibition of 21

The molecule listed as O=C(O)CCCc1ccc(-c2nc3cc4ccccc4cc3nc2-c2ccc(CCCC(=O)O)s2)s1 has a reported inhibition of 12

The molecule listed as COC(=O)Cc1csc(-c2nc3cc4ccccc4cc3nc2-c2cc(CC(=O)OC)cs2)c1 has a reported inhibition of 17

The molecule listed as O=C(O)CCc1ccc(-c2nc3cc4ccccc4cc3nc2-c2ccc(CCC(=O)O)s2)s1 has a reported inhibition of 18

The molecule listed as O=C(O)c1ccc2cc3nc(-c4cccs4)c(-c4cccs4)nc3cc2c1 has a reported inhibition of 6
